Counter-ions that a name gives are not always drawn.
Entries annotated with measured melting point

Completed entries (count: 4):
Cc1cc(OCCN2CCCC2)nn1-c1ccc(Cl)c(Cl)c1.Cl: > 280 °C (dec.)
Cc1cc(OCCCCN2CCCCC2)nn1-c1ccc(Cl)c(Cl)c1.Cl: 156 to 161 °C
Cl.Clc1ccc(-n2ccc(OCCCCN3CCCC3)n2)cc1Cl: 181 to 186 °C
C[C@@H]1CN(CCCCOc2ccn(-c3ccc(Cl)c(Cl)c3)n2)C[C@H](C)O1.Cl: 149 to 154 °C

As a next step, examine the molecule that follows.
Request: Can you share its melting point? I mean this molecule: Clc1ccc(-n2ccc(OCCN3CCCC3)n2)cc1Cl (as salt: hydrochloride)
Response: 172 to 176 °C

====

Experimental endpoint: melting point

Cc1cc(OCCN2CCCCC2)nn1-c1ccc(Cl)c(Cl)c1 [Example 5]: 119 to 122 °C
Cc1cc(OCCN2CCCC2)nn1-c1ccc2ccccc2c1.Cl [Example 64]: 170 to 171 °C
CC(C)c1cc(OCCCN2CCCC2)nn1-c1ccc(Cl)c(Cl)c1.Cl [Example 34]: 152 to 156 °C
Cc1c(OCCN2CCCCC2)nn(-c2ccc(Cl)c(Cl)c2)c1C [Example 48]: 64 to 67 °C

Request: Can you share its melting point? I mean this compound: Cc1cc(OCCCCN2CCOCC2)nn1-c1ccc(Cl)c(Cl)c1.Cl [Example 22]
Response: 150 to 154 °C

====

- Target under test: σ1-receptor (Cavia porcellus)
- Sequence (Q60492 whole entry): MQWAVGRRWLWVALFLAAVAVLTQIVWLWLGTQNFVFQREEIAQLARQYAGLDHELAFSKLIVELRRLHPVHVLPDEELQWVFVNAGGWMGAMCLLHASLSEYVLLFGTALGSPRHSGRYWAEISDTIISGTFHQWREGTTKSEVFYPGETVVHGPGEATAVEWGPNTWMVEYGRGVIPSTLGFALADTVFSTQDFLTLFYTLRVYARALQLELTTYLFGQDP
Each record is given rule met if its reported Ki is strictly below 4 nM. Records at or above 4 nM are given rule not met.

Some solved entries appear below for comparison.
CC(C)c1cc(OCCCN2CCCC2)nn1-c1ccc(Cl)c(Cl)c1.Cl [Example 34, hydrochloride]: rule not met
CC(C)c1cc(OCCN2CCCCC2)nn1-c1ccc(Cl)c(Cl)c1: rule not met
Cc1cc(OCCCCN2CCCCC2)nn1-c1ccc(Cl)c(Cl)c1.Cl [Example 24, hydrochloride]: rule met

Now for another entry.
Request: Hi there! Is Ki for Cc1cc(OCCCCN2CCOCC2)nn1-c1ccc(Cl)c(Cl)c1.Cl [Example 22, hydrochloride] below 4 nM, do you know?
Response: rule met

====

Entries annotated with measured melting point

Request: Can you share its melting point? I mean this compound: `Cc1c(OCCN2CCCC2)nn(-c2ccc(Cl)c(Cl)c2)c1C.Cl`
Response: 146 to 148 °C

Request: Can you share its melting point? I mean this compound: `CC(=O)c1c(OCCN2CCCCC2)nn(-c2ccc(Cl)c(Cl)c2)c1C.O=C(O)C(=O)O`
Response: 158 to 161 °C

Request: Can you share its melting point? I mean this compound: `Cc1c(OCCCN2CCCC2)nn(-c2ccc(Cl)c(Cl)c2)c1C.Cl`
Response: 155 to 157 °C

Request: Can you share its melting point? I mean this compound: `Cl.Clc1ccc(-n2ccc(OCCCCN3CCOCC3)n2)cc1Cl`
Response: 165 to 169 °C

Request: Can you share its melting point? I mean this compound: `Cc1cc(OCCN2CCC(n3cnc4cccnc43)CC2)nn1-c1ccc(Cl)c(Cl)c1`
Response: 104 to 107 °C

====

Counter-ions that a name gives are not always drawn.
Entries annotated with measured melting point

Completed entries (count: 5):
CC(C)c1cc(OCCN2CCCC2)nn1-c1ccc(Cl)c(Cl)c1.Cl: 138 to 142 °C
Cc1cc(OCCCCN2CCN(C)CC2)nn1-c1ccc(Cl)c(Cl)c1.Cl.Cl: 181 to 185 °C
CCN(CC)CCCCOc1ccn(-c2ccc(Cl)c(Cl)c2)n1.O=C(O)C(=O)O: 130 to 135 °C
Cc1cc(OCCN2CCCCC2)nn1-c1ccc2ccccc2c1.Cl: 198 to 202 °C
Clc1ccc(-n2ccc(OCCN3CCOCC3)n2)cc1Cl (as salt: hydrochloride): 162 to 166 °C

Request: Can you share its melting point? I mean this compound: `CC(=O)c1c(OCCN2CCCC2)nn(-c2ccc(Cl)c(Cl)c2)c1C.O=C(O)C(=O)O`
Response: 159 to 162 °C

Request: Can you share its melting point? I mean this compound: `Cc1cc(OCCn2ccnc2)nn1-c1ccc(Cl)c(Cl)c1`
Response: 111 to 112 °C

Request: Can you share its melting point? I mean this compound: `Cc1cc(OCCN2CCOCC2)nn1-c1ccc(Cl)c(Cl)c1`
Response: 179 to 182 °C

Request: Can you share its melting point? I mean this compound: `COc1ccc(-n2nc(OCCN3CCOCC3)cc2C)cc1.Cl`
Response: 169 to 173 °C

Request: Can you share its melting point? I mean this compound: `CCN(CC)CCOc1nn(-c2ccc(Cl)c(Cl)c2)c(C)c1C(C)=O.O=C(O)C(=O)O`
Response: 147 to 149 °C

FYI, the data here is from patent US8470867B2.
